The measurements presented in this section are drawn from ChEMBL document CHEMBL3797028.

target: Sphingosine 1-phosphate receptor 2 (Homo sapiens, UniProt O95136); test: Agonist activity at S1PR2 (unknown origin)
Sequence (O95136 whole entry): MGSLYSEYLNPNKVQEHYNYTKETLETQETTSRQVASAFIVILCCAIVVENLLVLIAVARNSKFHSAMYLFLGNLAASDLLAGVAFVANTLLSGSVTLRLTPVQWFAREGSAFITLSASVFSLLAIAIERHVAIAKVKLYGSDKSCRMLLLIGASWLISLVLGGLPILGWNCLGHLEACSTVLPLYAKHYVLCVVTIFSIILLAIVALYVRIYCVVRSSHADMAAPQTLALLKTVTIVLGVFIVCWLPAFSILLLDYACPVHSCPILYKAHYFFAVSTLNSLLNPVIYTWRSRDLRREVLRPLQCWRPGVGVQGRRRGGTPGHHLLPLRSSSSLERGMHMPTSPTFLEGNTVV
pEC50: −log10 of the molar value.
MEASURED_PARAMETER: pEC50

Test item CCc1cc(-c2noc(-c3cc(C)c(CN(C)CC(C)C)s3)n2)cc(C)c1OC[C@@H](O)CNC(=O)CO ; Sphingosine 1-phosphate receptor 2 (Homo sapiens, UniProt O95136); reported pEC50 was < 6.00

---

species on record: Rattus norvegicus; test: Intrinsic clearance in rat liver microsomes scaled to body weight; settings: in vitro
MEASURED_PARAMETER: CL (L/h/kg)
Report the value in L/h/kg with no unit label.

// solved cases for CL follow
CCc1cc(-c2noc(-c3cc(C)c(CN(C)CC(C)C)s3)n2)cc(C)c1OC[C@@H](O)CNC(=O)CO : 1512
CCc1cc(-c2noc(-c3cc(C)nc(CN(C)CC(C)C)c3)n2)cc(C)c1OC[C@@H](O)CNC(=O)CO : 118.2

CL in this record for CCc1cc(-c2noc(-c3cc(C)cc(CN(C)CC(C)C)c3)n2)cc(C)c1OC[C@@H](O)CNC(=O)CO : 79.8

// field: CL; key: CCc1cc(-c2noc(-c3cc(C)c(CN(C)C)s3)n2)cc(C)c1OC[C@@H](O)CNC(=O)CO ; value = 876
